test system: Kentucky bluegrass; assay: Turf grass selectivity, greenhouse pot test; assay type: in vivo, Poa pratensis; settings: 25 g ai/ha, 2 weeks
So I've got a bunch of compounds here, and I need their phytotoxicity (visual assessment 0-10) values.
The answer should be written as a number, with no unit following it.

Recorded phytotoxicity (visual assessment 0-10) of Cc1cc(C)nc(NC(=O)NS(=O)(=O)c2ccccc2C(O)C(C)F)n1 (stereo not shown) , please. 0

Please do the same for "COc1nc(C)nc(NC(=O)NS(=O)(=O)c2cscc2C2(CF)OCCO2)n1" as well. 10

Please do the same for CCOC(=O)c1cnn(C)c1S(=O)(=O)NC(=O)Nc1nc(OC)cc(OC)n1 [Control chemical No. 1, Pyrazosulfuron ethyl, reference compound] as well. 0

Please do the same for COc1cc(OC)nc(NC(=O)NS(=O)(=O)c2ncccc2C(F)(F)F)n1 [Control chemical No. 2, Flazasulfuron, reference compound] as well. 10

----------
test system: Bentgrass; assay: Turf grass selectivity, greenhouse pot test; format: in vivo, Agrostris palustris; conditions: 3 g ai/ha, 4 weeks
measured_metric: phytotoxicity (visual assessment 0-10)
The answer should be written as a number, with no unit following it.

Recorded phytotoxicity (visual assessment 0-10) of CCOC(=O)c1cnn(C)c1S(=O)(=O)NC(=O)Nc1nc(OC)cc(OC)n1 [Control chemical No. 1, Pyrazosulfuron ethyl, reference compound] , please. 0

Please do the same for "COc1nc(C)nc(NC(=O)NS(=O)(=O)c2cscc2C2(CF)OCCO2)n1" as well. 1

Please do the same for Cc1cc(C)nc(NC(=O)NS(=O)(=O)c2ccccc2C(O)C(C)F)n1 (stereo not shown) as well. 0

Please do the same for COc1cc(OC)nc(NC(=O)NS(=O)(=O)c2ncccc2C(F)(F)F)n1 [Control chemical No. 2, Flazasulfuron, reference compound] as well. 10

----------
So I've got a bunch of molecules here, and I need their phytotoxicity (visual assessment 0-10) values.
system: Zoysia japonica; test: Turf grass selectivity, greenhouse pot test; assay type: in vivo; settings: Zoysia japonica, 100 g ai/ha, 4 weeks
The answer should be written as a number, with no unit following it.

Recorded phytotoxicity (visual assessment 0-10) of COc1cc(OC)nc(NC(=O)NS(=O)(=O)c2ncccc2C(F)(F)F)n1 [Control chemical No. 2, Flazasulfuron, reference compound] , please. 2

Please do the same for COc1nc(C)nc(NC(=O)NS(=O)(=O)c2cscc2C2(CF)OCCO2)n1 [Example 2] as well. 0

Please do the same for Cc1cc(C)nc(NC(=O)NS(=O)(=O)c2ccccc2C(O)C(C)F)n1 (stereo not shown) [Example 1] as well. 0

Please do the same for CCOC(=O)c1cnn(C)c1S(=O)(=O)NC(=O)Nc1nc(OC)cc(OC)n1 [Control chemical No. 1, Pyrazosulfuron ethyl, reference compound] as well. 0

----------
So I've got a bunch of compounds here, and I need their efficacy (0-100 scale) values.
test system: Portulaca oleracea; experiment: Weed spectrum, greenhouse pot test; format: in vivo; conditions: Pre-emergence, 100 g ai/ha, two weeks after application

Recorded efficacy (0-100 scale) of COc1cc(OC)nc(NC(=O)NS(=O)(=O)c2ncccc2C(F)(F)F)n1 [Control chemical No. 2, Flazasulfuron, reference compound] , please. 100

Please do the same for "COc1nc(C)nc(NC(=O)NS(=O)(=O)c2cscc2C2(CF)OCCO2)n1" as well. 100

Please do the same for CCOC(=O)c1cnn(C)c1S(=O)(=O)NC(=O)Nc1nc(OC)cc(OC)n1 [Control chemical No. 1, Pyrazosulfuron ethyl, reference compound] as well. 100

Please do the same for Cc1cc(C)nc(NC(=O)NS(=O)(=O)c2ccccc2C(O)C(C)F)n1 (stereo not shown) as well. 100

Where these numbers come from: patent US20100035755A1
